- EXPERIMENTAL_SYSTEM: hsst3 (Homo sapiens, UniProt P32745)
- Construct: expressed in transfected cells
- Sequence (P32745 whole entry): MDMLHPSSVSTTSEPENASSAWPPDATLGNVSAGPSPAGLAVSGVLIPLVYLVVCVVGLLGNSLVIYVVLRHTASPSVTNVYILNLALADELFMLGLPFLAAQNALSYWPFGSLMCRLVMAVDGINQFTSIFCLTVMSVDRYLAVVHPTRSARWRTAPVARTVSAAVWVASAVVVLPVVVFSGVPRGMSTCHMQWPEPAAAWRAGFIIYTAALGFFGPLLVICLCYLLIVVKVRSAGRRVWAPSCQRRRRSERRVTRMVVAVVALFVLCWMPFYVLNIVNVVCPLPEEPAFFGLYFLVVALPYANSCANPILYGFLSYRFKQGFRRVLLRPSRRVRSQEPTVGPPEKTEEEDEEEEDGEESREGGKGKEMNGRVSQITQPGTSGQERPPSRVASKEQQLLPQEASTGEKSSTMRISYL
- TEST_PROTOCOL: Somatostatin receptor radioligand binding assay, hsst3
Numbered stars: 1 amine (or outer) side, 2 acyl side, 3 side chain; on linkers, the order of the positions; unused ones are H or OH. Bridge positions count the residues as written; N and C are the ends. Square brackets hold non-standard residues; d marks the D form. Peptide text beside a SMILES is read from it. * marks the point of attachment. X2 = CN1C[C@H](CSCC(=O)*)C[C@@H]2c3cccc4[nH]cc(c34)C[C@H]21; Pipz(1-CH2CO,4-CH2CH2NH) = O=C(CN1CCN(CCN[*:1])CC1)[*:2]; Abu = CC[C@H](N)C(=O)O; AEEA = NCCOCCOCC(=O)O
MEASURE: pKi
Keep in mind that pKi stands for -log10 of concentration in molar terms.

Look over these answered cases.
COMPOUND	pKi
CCCN1C[C@H](CSCC(=O)NCCCC[C@H](NC(=O)CSC[C@@H]2C[C@@H]3c4cccc5[nH]cc(c45)C[C@H]3N(CCC)C2)C(=O)N[C@H]2CSSC[C@@H](C(=O)N[C@H](C(N)=O)[C@@H](C)O)NC(=O)[C@H](CC)NC(=O)[C@H](CCCCN)NC(=O)[C@@H](Cc3c[nH]c4ccccc34)NC(=O)[C@H](Cc3ccc(O)cc3)NC2=O)C[C@@H]2c3cccc4[nH]cc(c34)C[C@H]21 [Example 9]	6.27
CC[C@@H]1NC(=O)[C@H](CCCCN)NC(=O)[C@@H](Cc2c[nH]c3ccccc23)NC(=O)[C@H](Cc2ccc(O)cc2)NC(=O)[C@@H](NC(=O)[C@@H](Cc2ccc(O)cc2)NC(=O)[C@@H](Cc2ccc(O)cc2)NC(=O)[C@H](CCCCN)NC(=O)CN2CCN(CCNC(=O)CSC[C@@H]3C[C@@H]4c5cccc6[nH]cc(c56)C[C@H]4N(C)C3)CC2)CSSC[C@@H](C(=O)N[C@H](C(N)=O)[C@@H](C)O)NC1=O [Example 32] (X2-[Pipz(1-CH2CO,4-CH2CH2NH)]K[dY][dY]CY[dW]K[Abu]CT-NH2; disulfide 5-10)	7.34
CC[C@@H]1NC(=O)[C@H](CCCCN)NC(=O)[C@@H](Cc2c[nH]c3ccccc23)NC(=O)[C@H](Cc2ccc(O)cc2)NC(=O)[C@@H](NC(=O)[C@@H](Cc2ccc(O)cc2)NC(=O)[C@@H](Cc2ccc(O)cc2)NC(=O)[C@H](CCCCN)NC(=O)COCCOCCNC(=O)CSC[C@@H]2C[C@@H]3c4cccc5[nH]cc(c45)C[C@H]3N(C)C2)CSSC[C@@H](C(=O)N[C@H](C(N)=O)[C@@H](C)O)NC1=O [Example 34] ({X2-AEEA}-K[dY][dY]CY[dW]K[Abu]CT-NH2; disulfide 4-9)	7.31

Quick check: pKi of CC(C)[C@@H]1NC(=O)[C@H](CCCCN)NC(=O)[C@@H](Cc2c[nH]c3ccccc23)NC(=O)[C@H](Cc2ccc(O)c(I)c2)NC(=O)[C@@H](NC(=O)[C@@H](Cc2ccccc2)NC(=O)CN2CCN(CCNC(=O)CN3CCN(CCNC(=O)CSC[C@@H]4C[C@@H]5c6cccc7[nH]cc(c67)C[C@H]5N(C)C4)CC3)CC2)CSSC[C@@H](C(=O)N[C@H](C(N)=O)[C@@H](C)O)NC1=O [Example 39] ?
6.87
